The reported measurements were obtained from patent US20050049403A1.

target: T1, recombinant human TGFβ1 (human, UniProt P01137 279-390); assay: radioreceptor assay, inhibition of 125I-TGFβ1 binding to A549 cells; concentration of antibody combining sites
T1 construct: mature; also called TGFbeta1
T1 sequence (P01137 279-390 limits assumed): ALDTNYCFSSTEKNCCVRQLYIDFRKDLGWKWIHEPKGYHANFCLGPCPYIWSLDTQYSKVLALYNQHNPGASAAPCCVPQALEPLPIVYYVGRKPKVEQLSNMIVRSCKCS
recorded.metric: pIC50
One number for each entry, as −log10 of the molar value.

- binder: "27C1/10A6 IgG4 (antibody, V domains shown, Whole antibody: human gamma 4 constant region (pG4D100) and human lambda constant region (pLN10), made in CHO cells) VH: QVQLVESGGGVVQPGRSLRLSCAASGLTFSSYDMHWVRQPPAKGLEWVAVISYDGSSKYYADSVKGRFTISRDNSKNTLYLQMNSLRAEDTAVYYCARTGEYSGYDTSGVELWGQGTTVTVSS VL: HVILTQDPAVSVALGQTVRITCQGDSLKSYYASWYQQKPGQAPVLVIYGENSRPSGIPDRFSGSSSGNTASLTITGAQAEDEADYYCNSRDSSGTHLEVFGGGTKLTVLG"
  pIC50: 8.05

Which pIC50 reading was recorded for the binder CS32 scFv (scFv) scFv: QVQLVQSGGGVVQPGRSLRLSCAASGFTFSSYGMHWVRQAPGKGLEWVAVISYDGSIKYYADSVKGRFTISRDNSKNTLYLQMNSLRAEDTAVYYCARTGEYSGYDTSGVELWGQGTTVTVSSGGGGSGGGGSGGGGSDIVMTQSPDSLAVSLGERATINCKSSQSLLYSYNKMNYLAWYQQKPGQPPKLLINWASTRESGVPDRFSGSGSGTDFTLTISSLQAEDVAVYYCQQYYATPLTFGHGTKVEIKR ?
8.35
